# assayComment: self-splicing fitness, log relative to wild type (ln ratio); higher = more splicing; Tetrahymena group I intron in knt gene, E. coli kanamycin selection, DiMSum; sequences stand for … in CUCUCU…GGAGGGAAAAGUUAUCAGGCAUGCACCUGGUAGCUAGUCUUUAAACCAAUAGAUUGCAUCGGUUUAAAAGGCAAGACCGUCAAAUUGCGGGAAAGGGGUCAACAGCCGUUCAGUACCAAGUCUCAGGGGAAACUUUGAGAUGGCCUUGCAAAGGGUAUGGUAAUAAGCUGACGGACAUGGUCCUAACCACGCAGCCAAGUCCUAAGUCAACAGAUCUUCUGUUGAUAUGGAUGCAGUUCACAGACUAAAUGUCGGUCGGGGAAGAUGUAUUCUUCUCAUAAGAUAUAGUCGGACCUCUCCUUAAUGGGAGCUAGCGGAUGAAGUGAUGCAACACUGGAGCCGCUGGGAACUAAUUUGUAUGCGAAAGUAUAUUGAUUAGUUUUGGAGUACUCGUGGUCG;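 also: selection with 25 µg/mL kanamycin versus none on LB agar overnight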
# conditions: 37 °C
readoutKind: self-splicing fitness (ln)
When you answer, write just the number.

// worked examples, self-splicing fitness (ln) included
Sample `CUGGAGCAAUAUUACGUCUA` ; self-splicing fitness (ln) observed: -0.483

// self-splicing fitness (ln) value for `CCUAAGCAAUAUUACGAGAG` : -1.23

self-splicing fitness (ln) reading for `AAAUAGCAAUAUUACGGCCA` : -0.523

Others:
Short answer for `CACUAGCAAUAUUACGUUUA` : self-splicing fitness (ln) was -2.68

Lab book: self-splicing fitness (ln) of `UGCAAGCAAUAUUACGCCCU` noted as 0.448

For this sequence ( `UCGCAGCAAUAUUACGCGGG` ), measured self-splicing fitness (ln) is -3.33

So for `UACCAGCAAUAUUACGUGAU` , the logged self-splicing fitness (ln) turned out to be -1.41

Consider `CGGCAGCAAUAUUACGAUGA` . Its measured self-splicing fitness (ln) is -1.21

self-splicing fitness (ln) in this record for `AAGCAGCAAUAUUACGCCUC` : -1.22

response.value for `GACGAGCAAUAUUACGUACA` (field: self-splicing fitness (ln)) = -2.26

`CUAAAGCAAUAUUACGUACA` has a reported self-splicing fitness (ln) of -0.872

sequence `ACGUAGCAAUAUUACGAUGC` , self-splicing fitness (ln) observed: -1.51

Per the records, this sequence ( `UAUCAGCAAUAUUACGUUUC` ) has self-splicing fitness (ln) equal to -1.73

----------
# assayComment: self-splicing fitness, log relative to wild type (ln ratio); higher = more splicing; Tetrahymena group I intron in knt gene, E. coli kanamycin selection, DiMSum; sequences stand for … in CUCUCU…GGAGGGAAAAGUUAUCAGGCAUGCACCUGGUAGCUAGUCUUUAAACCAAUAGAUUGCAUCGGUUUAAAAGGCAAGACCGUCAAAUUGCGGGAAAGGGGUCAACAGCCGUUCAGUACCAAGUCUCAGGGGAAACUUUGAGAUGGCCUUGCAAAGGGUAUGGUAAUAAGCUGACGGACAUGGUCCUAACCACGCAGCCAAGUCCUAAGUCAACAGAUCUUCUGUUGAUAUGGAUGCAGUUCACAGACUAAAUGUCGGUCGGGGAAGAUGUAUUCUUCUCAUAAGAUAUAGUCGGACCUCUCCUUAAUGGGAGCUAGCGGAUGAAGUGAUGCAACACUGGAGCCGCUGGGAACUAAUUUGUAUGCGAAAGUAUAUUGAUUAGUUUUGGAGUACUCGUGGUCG
# conditions: 30 °C
readoutKind: self-splicing fitness (ln)
Could you keep your reply to the number by itself?

Past entries and their recorded results:
Please fill in: self-splicing fitness (ln) reported for `GGUCAGCAAUAUUACGUUCG` = -0.853

The value of self-splicing fitness (ln) measured for the sequence `CCGAAGCAAUAUUACGCAUC` turned out to be -4.21

Reported self-splicing fitness (ln) for `AGUCAGCAAUAUUACGGCGA` was -0.359

Here is another sequence to look at.
Reported self-splicing fitness (ln) ( `GACUAGCAAUAUUACGUGCA` ) = -0.898
